test system: PXR homodimer (NR concentration 270 nM); test: PBM binding z-score (relative to random genomic background probes); higher = stronger binding; sequences stand for … in GC…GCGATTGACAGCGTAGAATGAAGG
quantity_kind: PBM binding z-score
// return just the number, without any unit appended

Provide only the value of recorded PBM binding z-score for GCTAGCAGGCCATTTGAGTCACTCAATGACGGGC
-0.961

Provide only the value of recorded PBM binding z-score for TCATATCGGTAAAGGTGAAAGTCGAACGATATGA
-0.566

Provide only the value of recorded PBM binding z-score for GGAACGAGGGCAAAGTTGATATCATCTGTCGACG
0.208

Provide only the value of recorded PBM binding z-score for CGAACTAGGTCAGAACTGGACAGTGAAGGATGAT
-0.282

Provide only the value of recorded PBM binding z-score for ACTATTAGTTGAGACGAGGGCTACCGATAGGTTG
-0.105

Provide only the value of recorded PBM binding z-score for GGTGCTAGGTCAGGTTGGTCAGCTAACGGGTACG
0.481

Provide only the value of recorded PBM binding z-score for TCTTGTTGATCAGCAGGTTAAGAAAGCTGGCCAA
-0.115

Provide only the value of recorded PBM binding z-score for CCTAGTAGGTCAAGGTCACACACGCTATAGGTAC
1.81

Provide only the value of recorded PBM binding z-score for CGTCCATGGTCAAGGTCAGTGAAAGAGACTCGAA
0.42

Provide only the value of recorded PBM binding z-score for TCAGACAGATGAAGGTAACTCAGGTACGCAGTCG
0.216

Provide only the value of recorded PBM binding z-score for CAAACTAGCTCACGAAAGGTCAAAGTCGAATGAC
1.75

Provide only the value of recorded PBM binding z-score for GCTAATAGTTGAAAGGGCAACCGAATGATTCTCG
-0.00303
